Sourced from patent US20240141038A1

So I've got a bunch of binders here, and I need their OD450 values.
- tgt: T1, Cynomolgus monkey NKp46 for immunization, screening, and testing (Kactus, NKP-CM146) (cynomolgus monkey, UniProt Q95JB9 22-254)
- T1 construct: Bought protein; also called monkey NKp46 antigen protein; cynomolgus monkey NKp46 antigen
- assayRemarks: ELISA, coated antigen, VHH supernatant, anti-Myc HRP

Using the record for NKp46-PA29 VHH (his and c-Myc labels) (VHH, IPTG-induced E. coli supernatant used in the screening ELISA; also called NKp46-PA29 clone supernatant; not shown: his and c-Myc labels) VHH: QVQLVESGGGWVQPGGSLRLSCAASGRTYSIYGMGWFRQAPGKEREIVAAINWNSGHTYYADSVKGRFTISRDNAKNTHYLQMNSLKPEDTAVYYCAADSIIGLSFTVKDYDYWGQGTQVTVSS , report its OD450.
> 1

Looking for the measured OD450 of NKp46-PA27 VHH (his and c-Myc labels) (VHH, IPTG-induced E. coli supernatant used in the screening ELISA; also called NKp46-PA27 clone supernatant; not shown: his and c-Myc labels) VHH: DVQLVESGGGLVQAGASLRLSCAASGRTESWYRMGWFRQAPGKGREVVARISGDTNIKYYAGSVKGRFTISRDNAKNTLYLQMTNLKPEDTARYYCAADRTGATWDYWGQGTQVTVSS , can you help?
> 1

Which OD450 is reported for this binder? NKp46-PA22 VHH (his and c-Myc labels) (VHH, IPTG-induced E. coli supernatant used in the screening ELISA; also called NKp46-PA22 clone supernatant; not shown: his and c-Myc labels) VHH: QVQLVESGGGLVQAGGSLRLSCTASGRTFETLHWFRQAPGKEREFVARIWWIGGATFYADSVKGRFTISRDNAKNMVYLQMNSLKPEDTAIYYCAADARYTSNRRWESDYWGQGTQVTVSS
> 1

State the recorded OD450 for this entry: NKp46-PA63 VHH (his and c-Myc labels) (VHH, not shown: small tags and cut ends, also called NKp46-PA63 clone supernatant) VHH: EVQLVESGGGLVQPGGSLRLSCAASGRTSTSYAMGWFRQAPGKEREFVAAINRSGDFPYYADSVKGRFTIFRDNAKNTVYLQMSSVKPEDTGVYFCAAAPRAPATQVVISAFGYEYWGQGTQVTVSS
> 1

I have this binder here, NKp46-PC13 VHH (his and c-Myc labels) (VHH, IPTG-induced E. coli supernatant used in the screening ELISA; also called NKp46-PC13 clone supernatant; not shown: his and c-Myc labels) VHH: DVQLVESGGGSVQAGGSLRLSCAASGYTRSIYYMGWFRQAPGKEREGVAVMHTGGGSTYYTDSVKGRFTISQDNAKNTVYLQMNSLKPEDTAMYYCAASKYLLAFGGVEWILRPAGGWDYWAQGTQVTVSS , and I need its recorded OD450.
> 1

What measured OD450 goes with NKp46-PA34 VHH (his and c-Myc labels) (VHH, IPTG-induced E. coli supernatant used in the screening ELISA; also called NKp46-PA34 clone supernatant; not shown: his and c-Myc labels) VHH: QVQLVESGGGLVQTGGSLRLSCAASGSTSSFYRMGWFRQAPGKEREAVARISSSAGLIYYVDSVKGRFTISRAGAKNTVYLQMNSLKPEDTAVYYCAADRHGTRWDYWGQGTQVTVSS ?
> 1
